Provide the recorded pKd for the entries that follow.
# STUDY TARGET: rat EGFR (rat, UniProt A0ABK0LZB0 35-1214)
# TEST PROTOCOL: SPR Biacore
Give bare numbers, as −log10 of the molar value.

BINDER	pKd
E4-GS10-I1 pegylated, His-tagged (designed binder, 40 kDa branched PEG on the Cys of the C-terminal Cys tail, also called E4-GS10-I1 (with Peg)) MGVSDVPRDLEVVAATPTSLLISWHERDGSRQYYRITYGETGGNSPVQEFTVPGGVRTATISGLKPGVDYTITVYAVTDYFNPTTHEYIYQTTPISINYRTEIDKGSGSGSGSGSGSGSGSGSGSVSDVPRDLEVVAATPTSLLISWSARLKVARYYRITYGETGGNSPVQEFTVPKNVYTATISGLKPGVDYTITVYAVTRFRDYQPISINYRTEIDKPCQHHHHHH	8.25

Could you report pKd for every entry in the following list?
1. I1-GS10-E85 pegylated, His-tagged (designed binder, 40 kDa branched PEG on the Cys of the C-terminal Cys tail) MGVSDVPRDLEVVAATPTSLLISWSARLKVARYYRITYGETGGNSPVQEFTVPKNVYTATISGLKPGVDYTITVYAVTRFRDYQPISINYRTEIDKGSGSGSGSGSGSGSGSGSGSVSDVPRDLEVVAATPTSLLISWTQGSTHYQYYRITYGETGGNSPVQEFTVPGMVYTATISGLKPGVDYTITVYAVTDYFDRSTHEYKYRTTPISINYRTEIDKPCQHHHHHH
2. I1-GS10-E105 pegylated, His-tagged (designed binder, 40 kDa branched PEG on the Cys of the C-terminal Cys tail) MGVSDVPRDLEVVAATPTSLLISWSARLKVARYYRITYGETGGNSPVQEFTVPKNVYTATISGLKPGVDYTITVYAVTRFRDYQPISINYRTEIDKGSGSGSGSGSGSGSGSGSGSVSDVPRDLEVVAATPTSLLISWDAPTSRYQYYRITYGETGGNSPVQEFTVPGGLSTATISGLKPGVDYTITVYAVTDYKPHADGPHTYHESPISINYRTEIDKPCQHHHHHH
3. I1-GS10-E4 pegylated, His-tagged (designed binder, 40 kDa branched PEG on the Cys of the C-terminal Cys tail) MGVSDVPRDLEVVAATPTSLLISWSARLKVARYYRITYGETGGNSPVQEFTVPKNVYTATISGLKPGVDYTITVYAVTRFRDYQPISINYRTEIDKGSGSGSGSGSGSGSGSGSGSVSDVPRDLEVVAATPTSLLISWHERDGSRQYYRITYGETGGNSPVQEFTVPGGVRTATISGLKPGVDYTITVYAVTDYFNPTTHEYIYQTTPISINYRTEIDKPCQHHHHHH

1: 7.97; 2: 8.54; 3: 8.43
